- System: pigmentation on the backs of color guinea pigs
- assayOverview: Whitening evaluation (UV-induced pigmentation)
- Format: in vivo
- Set-up: key: +++: notably improved; ++: improved; +: a little improved; ±: no change
- runParameters: 0.05% in ethanol/propylene glycol (7:3), 30 μL once a day, five times a week, 4 weeks; visual change in pigmentation
reportedProperty: Whitening-improving effect

CCCCCCCCCCCCCCCCCCCCCCOCCOCCOCCOCCOCCOCCOCCOCCOCCOCCOC(=O)N[C@H]1C(O)O[C@H](CO)[C@@H](O)[C@@H]1O (stereo partly shown): ++
CCCCCCCCCCCCCCCCCCOCCOCCOCCOCCOCCOC(=O)N[C@H]1C(O)O[C@H](CO)[C@@H](O)[C@@H]1O (stereo partly shown): ++
CCCCCCCCCCCCCCCCOCCOCCOC(=O)N[C@H]1C(O)O[C@H](CO)[C@@H](O)[C@@H]1O (stereo partly shown): ++
CC(C=CC1=C(C)CCCC1(C)C)=CC=CC(C)=CC(=O)N[C@H]1C(O)O[C@H](CO)[C@@H](O)[C@@H]1O (single isomer, unassigned) [N-retinoyl-D-glucosamine]: +++
